- MEASUREMENT DESCRIPTION: in vitro
- STATED CONDITIONS: both, human, microsomes, Microsomal clearance t½ (min)
MEASURE NAME: half-life at 8.5 μM (h)
Report as a plain number; the unit h is understood.

Entry N[C@H](CNC(=O)C1(c2ccc(Cl)cc2)CCCC1)c1ccc(C(=O)Nc2ccncc2)cc1 [CP612] : reported half-life at 8.5 μM = ?
10.5

###

- MEASUREMENT DESCRIPTION: Pharmacokinetic studies in rats (plasma and brain)
- Format: in vivo
- STATED CONDITIONS: rat, plasma, iv, 40 mg/kg, rat, i.v. 40 mg/kg, 24h, mean all rats; read-out: Plasma concentration
- From the text: Because binding to plasma protein was approximately 90%, we predicted that the free concentration at each time point was 10 times lower than the measured plasma concentration. Pharmacokinetic studies in rats. Pharmacokinetics studies were contracted to the Drug Metabolism and Pharmacokinetics Core at Scripps Research. […] CP612 was detected with an API Triple Quad 5500 LC-MS/MS (SCIEX) using an MRM(+) method: CP612 (463/282, m/z) with carbamazepine (238/195.1, m/z) as an internal standard.
MEASURE NAME: concentration at 24 h (nM)
Report as a plain number; the unit nM is understood.

Entry `N[C@H](CNC(=O)C1(c2ccc(Cl)cc2)CCCC1)c1ccc(C(=O)Nc2ccncc2)cc1` : reported concentration at 24 h = ?
192

###

- MEASUREMENT DESCRIPTION: Pharmacokinetic studies in rats (plasma and brain)
- Type: in vivo
- STATED CONDITIONS: rat, plasma, ip, 40 mg/kg, rat, i.p. 40 mg/kg, 2h, mean all rats; read-out: Plasma concentration
MEASURE NAME: concentration at 2 h (µM)
Report as a plain number; the unit µM is understood.

Entry `N[C@H](CNC(=O)C1(c2ccc(Cl)cc2)CCCC1)c1ccc(C(=O)Nc2ccncc2)cc1` : reported concentration at 2 h = ?
15

###

- MEASUREMENT DESCRIPTION: Kinetic aqueous solubility
- Format: physicochemical
- STATED CONDITIONS: 0.1M phosphate-buffered saline (PBS), aqueous buffer, kinetic from dmso stock, single sample; read-out: Kinetic aqueous solubility, Corrected
MEASURE NAME: solubility kinetic at 3 h (µM)
Report as a plain number; the unit µM is understood.

Entry `N[C@H](CNC(=O)C1(c2ccc(Cl)cc2)CCCC1)c1ccc(C(=O)Nc2ccncc2)cc1` : reported solubility kinetic at 3 h = ?
7.54

###

- MEASUREMENT DESCRIPTION: Pharmacokinetic studies in rats (plasma and brain)
- Format: in vivo
- STATED CONDITIONS: rat, plasma, iv, 40 mg/kg, i.v. 40 mg/kg, 5min, mean all rats
MEASURE NAME: concentration at 5 min (µM)
Report as a plain number; the unit µM is understood.

Entry N[C@H](CNC(=O)C1(c2ccc(Cl)cc2)CCCC1)c1ccc(C(=O)Nc2ccncc2)cc1 [CP612] : reported concentration at 5 min = ?
80.3

###

- MEASUREMENT DESCRIPTION: Pharmacokinetic studies in rats (plasma and brain)
- Assay type: in vivo
- STATED CONDITIONS: rat, brain, iv, 40 mg/kg, rat, i.v. 40 mg/kg, 2h, mean all rats; read-out: Brain/Plasma
MEASURE NAME: Kp at 2 h
# output: bare number, no unit

Entry `N[C@H](CNC(=O)C1(c2ccc(Cl)cc2)CCCC1)c1ccc(C(=O)Nc2ccncc2)cc1` : reported Kp at 2 h = ?
0.163
